Numbers sourced from ChEMBL document CHEMBL1201862.

Listed next: entries and their corresponding GI50.
# Tested on: SF-268
# ASSAY_DETAILS: NCI tumour cell line growth inhibition, 48 h
Active and inactive are the calls of the source. No stated cut-off is given here; in the data, active = GI50 up to about 1.1 µM and inactive = higher. Where a SMILES comes first, the peptide text is derived from it. [ ]: non-standard residue; d: D form. The star is where a group is joined. Hyp = O=C(O)[CH]1C[CH](O)CN1; Cbz = O=C(OCc1ccccc1)*

MOLECULE: O=[N+]([O-])c1ccc(OCCNc2cccc3ccccc23)cc1
SYSTEM_NAME: SF-268
GI50: > 100 µM (inactive)

MOLECULE: Cc1cc2c3c(coc3c1-c1c(C)cc3c4c(coc14)C(=O)C(O)=C3C(C)C)C(=O)C(O)=C2C(C)C
SYSTEM_NAME: SF-268
GI50: 5.08 µM (inactive)

MOLECULE: Cc1ccc(N2C(=O)/C(=C3\SC(C(N)=O)=C(N)N3c3ccccc3)SC2=S)cc1
SYSTEM_NAME: SF-268
GI50: 15.7 µM (inactive)

MOLECULE: CCOC(=O)Cc1c(C)c2cc(C(=O)c3ccccc3)c(O)cc2oc1=O
SYSTEM_NAME: SF-268
GI50: 24.9 µM (inactive)

MOLECULE: O=C1C2C3CC4C5C3C1C5C1(SCCS1)C42 (stereo not drawn)
SYSTEM_NAME: SF-268
GI50: > 100 µM (inactive)

MOLECULE: COc1ccc(-c2cc(-c3cc(C)ccc3O)nc(O)n2)cc1
SYSTEM_NAME: SF-268
GI50: 80.9 µM (inactive)

MOLECULE: NC(=O)CNC(=O)C1CC(O)CN1C(=O)C1CCCN1C(=O)OCc1ccccc1 (stereo not drawn) (Cbz-Pro-[Hyp]-Gly-NH2; configuration not given here)
SYSTEM_NAME: SF-268
GI50: > 100 µM (inactive)

MOLECULE: N#C/C(c1nc2ccccc2[nH]1)=c1\s/c(=C/c2ccccc2)c(=O)n1-c1ccccc1
SYSTEM_NAME: SF-268
GI50: > 100 µM (inactive)

MOLECULE: Cc1csc(CP(=O)(OC(C)C)OC(C)C)n1
SYSTEM_NAME: SF-268
GI50: > 100 µM (inactive)

MOLECULE: CCN(c1ccccc1)[C@H]1C(=O)N(c2ccc([N+](=O)[O-])cc2)[C@H]1c1ccc(OC)cc1
SYSTEM_NAME: SF-268
GI50: > 100 µM (inactive)

MOLECULE: C=CC(C)(C)n1cc(C2=C3OC(=O)C(c4cn(C(C)(C)C=C)c5ccccc45)=C3OC2=O)c2ccccc21
SYSTEM_NAME: SF-268
GI50: > 100 µM (inactive)

MOLECULE: S=c1sc2c(s1)SCc1cccc(n1)CSc1sc(=S)sc1SCc1cccc(n1)CS2
SYSTEM_NAME: SF-268
GI50: > 100 µM (inactive)

MOLECULE: O=C(Nc1ccc(C(F)(F)F)cc1[N+](=O)[O-])C(=O)C(C(=O)c1ccc2ccccc2c1)C1OC(=O)c2ccccc21 (stereo not drawn)
SYSTEM_NAME: SF-268
GI50: 4.16 µM (inactive)

MOLECULE: CC1OC1P(=O)(O)O (stereo not drawn)
SYSTEM_NAME: SF-268
GI50: > 100 µM (inactive)

MOLECULE: CCNC1=C(NC(=O)CCl)C(=O)c2ccccc2C1=O
SYSTEM_NAME: SF-268
GI50: 18.1 µM (inactive)

MOLECULE: CCN(CC)c1ccc2cc(C(=O)NCc3ccccc3)c(=N)oc2c1
SYSTEM_NAME: SF-268
GI50: > 79.6 µM (inactive)

MOLECULE: Cc1ccccc1S(=O)(=O)Nn1cnc2ccc(S(=O)(=O)Nc3ccc(Cl)cc3)cc2c1=O
SYSTEM_NAME: SF-268
GI50: > 100 µM (inactive)

MOLECULE: NC(CCC(=O)NC(CSCC1C(=O)Nc2ccccc21)C(=O)NCC(=O)O)C(=O)O (stereo not drawn)
SYSTEM_NAME: SF-268
GI50: 5.92 µM (inactive)
